Tested on: T-47D breast
MEASUREMENT_NOTES: NCI-60 one-dose screen, 48 h (100 = growth as untreated, 0 = no growth, -100 = all killed)
CONDITION_PARAMETERS: 10 µM unless noted
The panel holds about 83,000 compounds, 20% with a hit somewhere; the sample as a whole holds those more often. The source made the active and inactive calls. How the source made its calls: active means growth percent below 10; inactive means the rest.

{"COMPOUND": "NC(=Nc1ccccc1)N[N+](=O)[O-]", "growth": "97% (inactive)"}
{"COMPOUND": "CNC(=O)Oc1cccc(C(F)(F)F)c1", "growth": "98.9% (inactive)"}
{"COMPOUND": "CCCOC(=O)N[C@H]1CCc2c(Br)c(OC)c(OC)c(OC)c2-c2ccc(SC)c(=O)cc21", "growth": "51.5% (inactive)"}
{"COMPOUND": "COC1=CC(=O)O[C@@H](/C=C/c2ccc3c(c2)OCO3)C1", "growth": "93.2% (inactive)"}
{"COMPOUND": "COC(=O)[C@@H](C)C[C@H](Cc1ccccc1)NC(=O)c1nc([C@@H](C[C@H](C(C)C)N(C)C(=O)[C@@H](NC(=O)[C@H]2CCCN2C)C(C)C)OC(C)=O)sc1C", "growth": "43.2% (inactive)"}
{"COMPOUND": "O=C1OCC2=C1C(c1ccccc1)c1cc3c(cc1N2)OCO3 (stereo not given)", "growth": "62.6% (inactive)"}
{"COMPOUND": "CN1C(=O)C(=Cc2cn(CCCCCCn3c4ccccc4c(=O)c4ccccc43)c3ccccc23)C(=O)N(C)C1=O", "growth": "75% (inactive)"}
{"COMPOUND": "O=C(CCCCCNC1=CC(=O)c2ccccc2C1=O)NCCC[Te]c1ccccc1", "growth": "-60.5% (active)"}
{"COMPOUND": "CSc1nc(Cl)cc(N2CC2)n1", "growth": "108% (inactive)"}
{"COMPOUND": "CCCC(C)C1(CC)C(=O)NC(=O)N(C)C1=O (stereo not given)", "growth": "87% (inactive)"}
{"COMPOUND": "COC(=O)[C@]12CCC(C)(C)C[C@H]1[C@H]1C(=O)C[C@@H]3[C@@]4(C)C[C@@]5(CC(C)(C)[C@@H]4CC[C@@]3(C)[C@]1(C)CC2)OO[C@@](C)(C(F)(F)F)O5", "growth": "81.4% (inactive)"}
{"COMPOUND": "COc1ccc2c(c1)c(-c1nc(-c3c[nH]c4ncccc34)cs1)cn2CCCCN1CCCCC1", "growth": "-55.5% (active)"}
{"COMPOUND": "C1CCC2(CC1)OOCNCOO2", "growth": "89.8% (inactive)"}
{"COMPOUND": "C[C@]12CCc3sc(-c4ccccc4O)nc3C1=CC[C@@H]1[C@@H]2CC[C@]2(C)C(=O)CC[C@@H]12", "growth": "90.1% (inactive)"}
{"COMPOUND": "COc1ccc2c(c1)c(-c1nc(-c3cn(C)c4ncccc34)cs1)cn2CCN1CCOCC1", "growth": "20% (inactive)"}
{"COMPOUND": "Cc1ccc2c(C(C[N+](=O)[O-])c3cccs3)c(-c3ccccc3)[nH]c2c1 (stereo not given)", "growth": "14.6% (inactive)"}
{"COMPOUND": "O=[N+]([O-])c1ccc(OP(=O)(CCl)N(CCCl)CCCl)cc1 (stereo not given)", "growth": "93.8% (inactive)"}
{"COMPOUND": "CC1(C)N=C(N)N=C(N)N1c1ccc(CCCCc2ccc(Cl)c(S(=O)(=O)F)c2)c(Cl)c1", "growth": "42.3% (inactive)"}
{"COMPOUND": "COC[C@@H]1C[C@@]2(C)[C@@H](CC[C@@H]3[C@@H]2CC[C@@]2(C)[C@H]3CC[C@]2(C)O)CC1=O", "growth": "88.2% (inactive)"}
{"COMPOUND": "CC(=O)[C@H]1CC[C@H]2[C@@H]3CC[C@H]4C[C@H](N)CC[C@]4(C)[C@H]3CC[C@]12C", "growth": "91% (inactive)"}
{"COMPOUND": "CCn1c2ccccc2c2cc(C(=O)c3cccc4c3CCCN4)ccc21", "growth": "104% (inactive)"}
{"COMPOUND": "CCOC(=O)[C@@H](C)C[C@H](Cc1ccccc1)NC(=O)c1csc([C@@H](C[C@H](C(C)C)N(C)C(=O)CNC(=O)[C@H]2CCCCN2C)OC(C)=O)n1", "growth": "47.5% (inactive)"}
{"COMPOUND": "Nc1ccc(Cl)cc1", "growth": "94.6% (inactive)"}
{"COMPOUND": "COc1ccc(/C=C\\c2cc(OC)c(OC)c(OC)c2)c(NS(=O)(=O)c2ccc(C)cc2)c1O", "growth": "96.4% (inactive)"}
{"COMPOUND": "CCCCCCCC[N+](C)(CCCCCCCC)CCCCCCCC", "growth": "-73.4% (active)"}
{"COMPOUND": "O=[N+]([O-])c1cc([N+](=O)[O-])c(Cl)cc1Cl", "growth": "-35.3% (active)"}
{"COMPOUND": "Cc1cccc(N2CCN(C(C)C#N)CC2)c1 (stereo not given)", "growth": "98.4% (inactive)"}
{"COMPOUND": "CCOC(=O)CCN(C)C1=Nc2ccc(Cl)cc2C(c2ccccc2)=[N+]([O-])C1", "growth": "101% (inactive)"}
{"COMPOUND": "CC1=C(CCCOC(=O)CN)C2=C(C)C3(CC3)[C@@](C)(O)C(=O)C2=C1", "growth": "63.6% (inactive)"}
{"COMPOUND": "COC(=O)[C@H](Cc1ccccc1)NNC(=O)c1csc([C@@H](C[C@H](C(C)C)N(C)C(=O)[C@@H](NC(=O)[C@H]2CCCCN2C)C2CC2)OC(C)=O)n1", "growth": "37.7% (inactive)"}
{"COMPOUND": "CCCCCCCC(=O)OCC(=O)[C@]1(O)Cc2c(O)c3c(c(O)c2[C@@H](OC2CC(N)C(O)C(C)O2)C1)C(=O)c1c(OC)cccc1C3=O (stereo not given in full)", "growth": "-69.2% (active)"}
{"COMPOUND": "CC(=O)O[C@H]1C(=O)[C@@]2(C)[C@H]([C@H](OC(=O)c3ccccc3)[C@]3(O)C[C@H](OC(=O)[C@H](OC(=O)OC[C@H]4COC(C)(C)O4)[C@@H](NC(=O)c4ccccc4)c4ccccc4)C(C)=C1C3(C)C)[C@]1(OC(C)=O)CO[C@@H]1C[C@@H]2O", "growth": "31.3% (inactive)"}
{"COMPOUND": "Fc1cccc(NCOOC2(OOCNc3cccc(F)c3)CCCCC2)c1", "growth": "86.8% (inactive)"}
{"COMPOUND": "COc1ccc2c(c1)c(C1(O)CC(CSC#N)OC1=O)cn2C(=O)c1ccc(Cl)cc1 (stereo not given)", "growth": "100% (inactive)"}
{"COMPOUND": "CCOC(=O)[C@@H](C)C[C@H](Cc1ccccc1)NC(=O)c1csc([C@@H](C[C@H](C(C)C)N(C)C(=O)[C@H](CC)NC(=O)[C@H]2CCCCN2C)OC(C)=O)n1", "growth": "53.1% (inactive)"}
